Reported IC50 values for a set of molecules
Biological target: Human Recombinant Cathepsin S (Homo sapiens)
Sequence (P25774 115-331): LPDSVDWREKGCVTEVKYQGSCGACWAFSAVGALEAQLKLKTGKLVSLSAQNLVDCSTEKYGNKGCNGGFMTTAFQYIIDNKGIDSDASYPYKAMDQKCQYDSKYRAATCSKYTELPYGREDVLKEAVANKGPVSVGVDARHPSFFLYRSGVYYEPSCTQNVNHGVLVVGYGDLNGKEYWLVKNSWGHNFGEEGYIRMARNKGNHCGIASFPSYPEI
Assay: Cathepsin selectivity screening, Cat S (Z-Val-Val-Arg-AMC)
Type: biochemical
Settings: Z-Val-Val-Arg-AMC substrate; Table 4; read-out: CatS IC50
Provide only the numeric value, understood in nM.

Please review the following examples before continuing.
• COc1ccc(-c2ccc(C(=O)N[C@@H](CC(C)C)C(=O)N[C@H](C#N)C[C@@H]3CCNC3=O)c(Cl)c2)cc1 [18r] = 24.6
• COc1ccc(-c2ccc(C(=O)N[C@@H](CC(C)C)C(=O)N[C@H](C#N)C[C@@H]3CCNC3=O)c(F)c2)cc1 [18b] = 232
• COc1cccc(-c2ccc(C(=O)N[C@@H](CC(C)C)C(=O)N[C@H](C#N)C[C@@H]3CCNC3=O)c(Cl)c2)c1 [18n] = 15.5

Proceed to the following item.
Looking for the measured IC50 of CC(C)C[C@H](NC(=O)c1ccc(-c2cccc3nn(C)cc23)cc1F)C(=O)N[C@H](C#N)C[C@@H]1CCNC1=O [18a] , can you help?
27.9

====

Reported inhibition at 10 µM values for a set of compounds
Molecular target: PL^Pro (Severe acute respiratory syndrome coronavirus 2)
Experiment: SARS-CoV-2 PLpro screening (Ac-LRGG-ACC substrate)
Type: biochemical
Details: read-out: PL^Pro (%inh)@10μM

Looking for the measured inhibition at 10 µM of CC(C)C[C@H](NC(=O)c1ccc(-c2ccc3cnn(C)c3c2)cc1)C(=O)N[C@H](C#N)C[C@@H]1CCNC1=O [6n] , can you help?
< 50%

====

Target: recombinant M^Pro (Severe acute respiratory syndrome coronavirus 2, UniProt P0DTD1)
Experiment: SARS-CoV-2 Mpro screening and IC50 determination (QS1 fluorogenic substrate, Drag assay)
Type: biochemical
Details: M^Pro IC50 (μM), recombinant M^Pro, 20 μM QS1 (Ac-Abu-Tle-Leu-Gln-ACC) substrate; Table 1
Threshold 0.9 µM: IC50 strictly smaller gives condition met, otherwise condition not met.

# example entries with known answers
* COc1ccc(-c2ccc(C(=O)N[C@@H](CC(C)C)C(=O)N[C@H](C#N)C[C@@H]3CCNC3=O)cc2)cc1OC | condition met
* COc1ccc(-c2ccc(C(=O)N[C@@H](CC3CCCCC3)C(=O)N[C@H](C#N)C[C@@H]3CCNC3=O)cc2)cc1 [12l] | condition not met
* COc1cccc(-c2ccc(C(=O)N[C@@H](CC(C)C)C(=O)N[C@H](C#N)C[C@@H]3CCNC3=O)cc2)c1 | condition met
* CC(C)C[C@H](NC(=O)c1ccc(-c2cccc3nn(C)cc23)cc1)C(=O)N[C@H](C#N)C[C@@H]1CCNC1=O | condition met

Turning now to a further record.
Criterion: IC50 strictly below 0.9 µM. Is it met by COc1cccc(-c2ccc(C(=O)N[C@@H](CC3CCCCC3)C(=O)N[C@H](C#N)C[C@@H]3CCNC3=O)cc2)c1 [12k] ?
condition not met

====

Reported pIC50 values for a set of molecules
Molecular target: recombinant M^Pro (Severe acute respiratory syndrome coronavirus 2, UniProt P0DTD1)
Test: SARS-CoV-2 Mpro screening and IC50 determination (QS1 fluorogenic substrate, Drag assay)
Type: biochemical
Conditions: recombinant M^Pro, 20 μM QS1 substrate; Table 3; read-out: M^Pro IC50
Would you please state pIC50, meaning minus log10 of the concentration in mol/L, as a bare number?

Please review the following examples before continuing.
- COc1ccc(-c2cc(F)c(C(=O)N[C@@H](CC(C)C)C(=O)N[C@H](C#N)C[C@@H]3CCNC3=O)cc2F)cc1 [18g]: 6.64
- COc1cccc(-c2cc(F)c(C(=O)N[C@@H](CC(C)C)C(=O)N[C@H](C#N)C[C@@H]3CCNC3=O)cc2F)c1 [18f]: 6.61
- COc1ccc(-c2ccc(C(=O)N[C@@H](CC(C)C)C(=O)N[C@H](C#N)C[C@@H]3CCNC3=O)cc2F)cc1 [18i]: 6.18
- COc1cccc(-c2ccc(C(=O)N[C@@H](CC(C)C)C(=O)N[C@H](C#N)C[C@@H]3CCNC3=O)cc2F)c1 [18h]: 6.16

Looking for the measured pIC50 of COc1cccc(-c2ccc(C(=O)N[C@@H](CC(C)C)C(=O)N[C@H](C#N)C[C@@H]3CCNC3=O)c(F)c2F)c1 [18d] , can you help?
6.77

Looking for the measured pIC50 of COc1ccc(-c2ccc(C(=O)N[C@@H](CC(C)C)C(=O)N[C@H](C#N)C[C@@H]3CCNC3=O)c(F)c2F)cc1 [18e] , can you help?
6.81

Looking for the measured pIC50 of COc1cccc(-c2ccc(C(=O)N[C@@H](CC(C)C)C(=O)N[C@H](C#N)C[C@@H]3CCNC3=O)c(C(F)(F)F)c2)c1 [18l] , can you help?
6.94

Looking for the measured pIC50 of COc1cccc(-c2ccc(C(=O)N[C@@H](CC(C)C)C(=O)N[C@H](C#N)C[C@@H]3CCNC3=O)c(C)c2)c1 [18j] , can you help?
6.79
